# Read-out: Monocyte Chemoattractant Protein-1 (MCP1), CCL2 (gene 6347)
# protocol-summary: BSK_SAg_MCP1: BioMAP Diversity Plus: SAg Assay for Monocyte Chemoattractant Protein-1 (MCP1) Biomarker Activity (AID 2283090)
# condition-set: primary human HUVEC with PBMC; actives raise or lower the signal
Calls of active or inactive are those of the source. How the source made its calls: active means hit-call score of the fitted dose curve at least 0.9, where 1 is the maximum; inactive means score below 0.9.
Hi there, use one of these labels in your reply, thanks! true = active, false = inactive

These solved cases illustrate the format of a correct answer.
Exercise: Please indicate how the test categorized `O=C(CC(=O)C(F)(F)C(F)(F)F)C(F)(F)F` .
Solution: false

Exercise: Please indicate how the test categorized `FC(F)(F)C(F)(F)CNCC(F)(F)C(F)(F)F` .
Solution: false

Exercise: Please indicate how the test categorized `FC(F)(F)C(F)(F)C(F)(F)C(F)(F)C(F)(F)C(F)(F)C(F)(F)C(F)(F)F` .
Solution: false

Exercise: Please indicate how the test categorized `CCc1ccc(C(c2ccc(CC)cc2)C(Cl)Cl)cc1` .
Solution: true

Exercise: Please indicate how the test categorized `CCc1c(Br)c(Br)c(Br)c(Br)c1Br` .
Solution: false

***
Exercise: Please indicate how the test categorized `FC(F)(Br)C(F)(F)C(F)(F)C(F)(F)C(F)(F)C(F)(F)Br` .
Solution: false

Exercise: Please indicate how the test categorized `O=C(O)C(F)(F)C(F)(F)C(F)(F)C(F)(F)C(F)(F)C(F)(F)C(F)(F)C(F)(F)C(F)(F)C(F)(F)C(F)(F)C(F)(F)C(F)(F)F` .
Solution: false

Exercise: Please indicate how the test categorized `COC(=O)CCC(F)(F)C(F)(F)C(F)(F)C(F)(F)F` .
Solution: false

Exercise: Please indicate how the test categorized `C=CC(=O)OCC(F)(F)C(F)(F)C(F)(F)C(F)(F)C(F)(F)C(F)(F)C(F)(F)F` .
Solution: false

Exercise: Please indicate how the test categorized `O=C(O)C(F)(F)C(F)(F)F` .
Solution: false
